Test system: CP335
Test: qHTS profiling for inhibitors of Plasmodium falciparum proliferation (AID 504749); note: nearly all actives have a fitted effect of over 60% in size
Details: P. falciparum in erythrocytes, SYBR Green DNA, 72 h; series mostly up to 28.7 µM
Inconclusive results are not listed. Active and inactive are the calls of the source. Calls come from the whole dose curve; as a rule, active = well fitted inhibition curve with a large enough effect; inconclusive = small, poorly fitted or top-dose-only effect; inactive = flat fitted curve, though single readings scatter.
// one of TRUE (active), FALSE (inactive), no free text

For orientation, consider the following solved cases.
COc1ccc(/C=N/NC(=O)c2ccncc2)cc1OC	FALSE
C#C[C@]1(O)CC[C@H]2[C@@H]3CCC4=CC(=O)CC[C@@H]4[C@H]3CC[C@@]21CC	FALSE
CC(C)Cc1ccc(CC(=O)O)cc1	FALSE

Next molecule, please.
Query string: Record request — test call for `Cc1cccc(C)c1NC(=O)CN1CCCC1`
Result string: FALSE
